Experiment: Cytotoxicity against human MT4 cells by CDCF probe based assay
Type: cell-based
propertyMeasured: CC50

These recorded examples may help you get a feel for the data.
C/C=C/C[C@@H](C)[C@@H](O)[C@H]1C(=O)N[C@@H](CC)C(=O)N(C)CC(=O)N(C)[C@@H]([C@@H](C)CC)C(=O)N[C@@H](C(C)C)C(=O)N(C)[C@@H](CC(C)C)C(=O)N[C@@H](C)C(=O)N[C@H](C)C(=O)N(C)[C@@H](CC(C)C)C(=O)N(C)[C@@H](CC(C)C)C(=O)N(C)[C@@H](C(C)C)C(=O)N1C    13 µM
C/C=C/C[C@@H](C)[C@@H](O)[C@H]1C(=O)N[C@@H](CC)C(=O)N(C)[C@H](C)C(=O)N(CC)[C@@H](C(C)C)C(=O)N[C@@H](C(C)C)C(=O)N(C)[C@@H](CC(C)C)C(=O)N[C@@H](C)C(=O)N[C@H](C)C(=O)N(C)[C@@H](CC(C)C)C(=O)N(C)[C@@H](CC(C)C)C(=O)N(C)[C@@H](C(C)C)C(=O)N1C    > 20 µM

Moving on to another compound below.
Query: CC50 lookup needed for `C/C=C/C[C@@H](C)[C@@H](O)[C@H]1C(=O)N[C@@H](CC)C(=O)N(C)[C@H](C)C(=O)N(C)[C@@H]([C@@H](C)CN2CCN(CCOC)CC2)C(=O)N[C@@H](C(C)C)C(=O)N(C)[C@@H](CC(C)C)C(=O)N[C@@H](C)C(=O)N[C@H](C)C(=O)N(C)[C@@H](CC(C)C)C(=O)N(C)[C@@H](CC(C)C)C(=O)N(C)[C@@H](C(C)C)C(=O)N1C` , thanks.
Reply: > 50 µM
